Biological target: T1, AFP p26 (human, UniProt P02771 381-609)
T1 construct: The construct used is not described
T1 sequence: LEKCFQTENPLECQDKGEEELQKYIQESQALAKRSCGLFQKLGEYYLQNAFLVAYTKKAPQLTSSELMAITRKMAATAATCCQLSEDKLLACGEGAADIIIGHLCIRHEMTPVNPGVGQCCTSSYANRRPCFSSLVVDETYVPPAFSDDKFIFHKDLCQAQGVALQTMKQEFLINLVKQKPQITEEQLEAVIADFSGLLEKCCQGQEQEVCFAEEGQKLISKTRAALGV
Assay: phage ELISA, A450 target/A450 IgG1-Fc
For each entry below, report its ELISA_avg value.
Field format: number, assumed ratio, no unit text.

## Task Value lookup for ELISA_avg; key = SEQ ID NO 874 (designed binder) MGSWNNFKSSLASIKQVLEALGGSEAELAVFELQIAHFERELQYYKGKGNPEVEALRKEAAAIRDELQAYRHN
## Result 24.1

## Task Value lookup for ELISA_avg; key = SEQ ID NO 818 (designed binder) MGSWSIFKYHLADIKLLLEALGGSEAELAYFEFLIADFEFTLQDYKGKGNPEVEALRKEAAAIRDELQAYRHN
## Result 20.2

## Task Value lookup for ELISA_avg; key = SEQ ID NO 864 (designed binder) MGSWSIFKDDLAVIKERLEALGGSEAELAHFEQDIAWFEHLLQYYKGKGNPEVEALRKEAAAIRDELQAYRHN
## Result 25.6

## Task Value lookup for ELISA_avg; key = SEQ ID NO 849 (designed binder) MGSWVYFKHRLAEIKDQLEALGGSEAELAEFETDIAWFEWMLQYYKGKGNPEVEALRKEAAAIRDELQAYRHN
## Result 11.1

## Task Value lookup for ELISA_avg; key = SEQ ID NO 826 (designed binder) MGSWSLFKHRLANIKVYLEALGGSEAELADFETFIAYFEKDLQEYKGKGNPEVEALRKEAAAIRDELQAYRHN
## Result 19.6
